These entries and their values trace back to ChEMBL document CHEMBL1154780.

test system: Candida albicans; assay: Anticandidal activity against Candida albicans ATCC 60193 after 24 hrs by spectrophotometry; type: functional; conditions: ATCC 60193, 24 h
Entries and their MIC values follow.
Just the number plus its unit, please.

smiles.entry | MIC
C#CCNC(=N)NCCCCCCCCN1CCCCCCCCNC(=N)NC1=O | 2.5 µM
N=C(NCCCCCCCCN1CCCCCCCCNC(=N)NC1=O)NCc1ccccc1 | 2.5 µM
OC(Cn1cncn1)(Cn1cncn1)c1ccc(F)cc1F | 0.8 µM
N=C(N)NCCCCCCCCNCCCCCCCCNC(=N)N | 80 µM

The compound C=C(C)CNC(=N)NCCCCCCCCN1CCCCCCCCNC(=N)NC1=O , tested on Candida albicans, showed MIC of 20 µM
